target-desc: Human immunodeficiency virus type 1 integrase (Human immunodeficiency virus 1, UniProt Q7ZJM1)
Sequence (Q7ZJM1 whole entry): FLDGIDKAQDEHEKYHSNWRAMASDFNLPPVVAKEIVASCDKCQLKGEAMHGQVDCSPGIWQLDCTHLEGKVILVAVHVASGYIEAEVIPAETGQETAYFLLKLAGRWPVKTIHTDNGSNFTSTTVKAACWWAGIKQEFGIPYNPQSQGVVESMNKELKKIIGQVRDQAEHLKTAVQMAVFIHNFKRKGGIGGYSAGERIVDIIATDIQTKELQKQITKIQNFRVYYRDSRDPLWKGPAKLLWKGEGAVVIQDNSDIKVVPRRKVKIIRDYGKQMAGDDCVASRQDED
attribute-measured: IC50 (µM)

CCCCCC[C@@H](C)C1=C(O)C(=O)[C@@H]2[C@H](O)[C@H](C)C[C@H](O)[C@H]2[C@]1(C)C(=O)/C=C\O :: 20
CCCC[C@@H](C)C1=C(O)C(=O)[C@@H]2C[C@H](C)C[C@H](C(=O)O)[C@H]2[C@]1(C)C(=O)CCO :: 20

Reference source: ChEMBL document CHEMBL1159369
